tested on: RAW-Dual (murine macrophage reporter line); experiment: NF-kB reporter (SEAP) activity fold change vs agonist alone; higher = enhanced NF-kB activity; details: modulator concentration 10 µM; agonist: MPLA […]
Reported Endpoint: NF-kB reporter
Answers are plain numbers.

Example compounds with recorded NF-kB reporter:
- Compound: "O=c1c(O)c(-c2ccccc2)oc2cc(O)ccc12"
  NF-kB reporter: 1.43
- Compound: "O=C(NCCC(CCO)c1ccccc1)c1cccc(Cl)c1 (configuration not stated)"
  NF-kB reporter: 0.946
- Compound: "CC12CCC3c4ccc(O)cc4CCC3C1CC(O)C2O (configuration not stated)"
  NF-kB reporter: 1.24
- Compound: "O=S(=O)(NCc1ccccn1)c1cccc(Cl)c1"
  NF-kB reporter: 1.06
- Compound: "Br.O=S(=O)(c1ccc(-c2csc(Nc3cccc4ccccc34)n2)cc1)N1CCOCC1"
  NF-kB reporter: 1

Fill in NF-kB reporter for each of the 6 compounds listed.
1. CCN(CC)c1ccc2cc(-c3nnc(NCc4ccccc4)s3)c(=O)oc2c1
2. CCOC(=O)C1=C(C)NC(=O)N(C(C)=O)C1c1ccc(Br)cc1 (configuration not stated)
3. COc1ccc(-c2[nH]c(-c3ccccc3)nc2SCC(=O)NC2CCCC2)cc1
4. Cc1cccc(OCCCOc2cccc3cccnc23)c1C
5. Cc1[nH]c2ccccc2c1CCNCc1ccc(/C=C/C(=O)NO)cc1
6. Cc1ccc(C2C=C(c3ccccc3)Nc3ncnn32)cc1 (configuration not stated)

1. 0.912
2. 0.868
3. 1.64
4. 1.07
5. 2.77
6. 0.893

====

system: RAW-Dual (murine macrophage reporter line); experiment: NF-kB reporter (SEAP) activity fold change vs agonist alone; higher = enhanced NF-kB activity; settings: modulator concentration 10 µM; agonist: CpG ODN 1826 0.5 ug/mL
Note to self: values exactly at 1 are met. So NF-kB reporter at or above 1 is met, below is not met.

Quick check: does CCc1nc2ccccc2[nH]1 have NF-kB reporter greater than or equal to 1?
met

State whether the measured NF-kB reporter reaches 1, counting equality as reaching it, for CCC(c1ccc(O)cc1)C(CC)c1ccc(O)cc1 (stereo unspecified)
not met

Is NF-kB reporter for COc1ccc2c(c1)c(CC(=O)O)c(C)n2C(=O)c1ccc(Cl)cc1 at or above 1?
met

Has Cc1ccc(C=C2Oc3c(ccc(O)c3CN3CCN(CCO)CC3)C2=O)cc1 a recorded NF-kB reporter greater than or equal to 1?
met

Does NF-kB reporter meet or surpass 1 for COc1ccc(CCNC(=O)NCc2nn(C3CCCC3)c3c2CCCC3)cc1 ?
not met

====

system: RAW-Dual (murine macrophage reporter line); assay: viability score (confluency relative to resting cells, overnight) (fraction); higher = more viable, active = viable (0.7 or more); settings: modulator concentration 10 µM
I'd be grateful if you could share measured viability score for these entries.

Below: 3 compounds and their reported viability score.
- Molecular String: "CC(=NN1CCN(Cc2cccc3ccccc23)CC1)c1ccc(Br)cc1"
  viability score: "1 (active)"
- Molecular String: "O=C(c1ccc(Cl)cc1)c1ccc(N2CCCCC2)c([N+](=O)[O-])c1"
  viability score: "0.998 (active)"
- Molecular String: "CCC(=O)Nc1ccc(NC(=O)c2ccccc2OC)cc1"
  viability score: "1.01 (active)"

Batch request: viability score for each of the following compounds.
1. O=C(CCCCCl)NN1c2ccccc2CCc2ccccc21
2. Cc1cccc(OCC(=O)Nc2cccc([N+](=O)[O-])c2)c1C
3. CN1C(=O)C(=NNC(=O)c2ccccc2Cl)c2cc(Br)cc(Br)c21

["1.01 (active)", "0.974 (active)", "1 (active)"]

====

tested on: RAW-Dual (murine macrophage reporter line); experiment: NF-kB reporter (SEAP) activity fold change vs agonist alone; higher = enhanced NF-kB activity; settings: modulator concentration 10 µM; agonist: MPLA […]
Binary classification by NF-kB reporter, with 1 as an inclusive lower bound for fulfilled; all other cases are not fulfilled.

# count of solved cases: 6
- Compound: "C[C@H]1[C@@H](OC(=O)CCC(=O)O)O[C@@H]2O[C@]3(C)CC[C@H]4[C@H](C)CC[C@@H]1[C@@]24OO3"
  Category: "not fulfilled"
- Compound: "O=[N+]([O-])c1ccc(CSc2nc3cccnc3[nH]2)cc1"
  Category: "not fulfilled"
- Compound: "COc1cc(C)ccc1NC(=O)Cc1csc(NC(=O)Nc2ccccc2OC)n1"
  Category: "not fulfilled"
- Compound: "O=C(C1COCC(=O)N1Cc1ccccc1)N1CCN(c2cccc(Cl)c2)CC1 (stereo unspecified)"
  Category: "fulfilled"
- Compound: "CCOC(=O)C1=C(C)NC(C)=C(C(=O)OCC)C1c1ccc(N(C)C)cc1"
  Category: "fulfilled"
- Compound: "Nc1ncn([C@H]2C[C@H](O)[C@@H](CO)O2)c(=O)n1"
  Category: "fulfilled"

Continue with the next compound.
Is it the case that NC[C@H]1CC[C@H](C(=O)O)CC1 has NF-kB reporter reaching or exceeding 1?
not fulfilled

====

system: RAW-Dual (murine macrophage reporter line); test: IRF reporter (Lucia luciferase) activity fold change vs agonist alone; higher = enhanced IRF activity; settings: modulator concentration 10 µM; agonist: MPLA […]
Reported Endpoint: IRF reporter
Answers are plain numbers.

// solved cases for IRF reporter follow
- Compound: "CN(C(=O)COc1coc(CN2CCN(c3ccccc3)CC2)cc1=O)c1ccccc1"
  IRF reporter: 0.986
- Compound: "CCCN1CCC(NCCc2cccc(Cl)c2)CC1"
  IRF reporter: 1.13
- Compound: "CC(=C(C#N)C(=O)NCc1ccccc1)N(C)C"
  IRF reporter: 1.26

Please state, for each entry, its recorded IRF reporter.
1. Cc1ccc(C=CC(=O)O)cc1S(=O)(=O)NCCO
2. COc1cc(C=NN2C(=O)c3cccc4cccc(c34)C2=O)cc(Br)c1OC
3. O=C(NCC1(O)CCc2ccccc2C1)Nc1ccccc1C(F)(F)F (configuration not stated)
4. CC(=O)Nc1ccc(CC(=O)N2C3C=CCC2CC3)cc1 (configuration not stated)
5. Cc1nc(NC(=O)N2CCC[C@H]2C(N)=O)sc1-c1ccnc(C(C)(C)C(F)(F)F)c1
6. CC(=O)Nc1ccc(NC(=O)COc2ccc(Br)c(C)c2)cc1
7. COc1ccc(CCn2c(C)c(C)n3c4c(=O)n(CCC(C)C)c(=O)n(C)c4nc23)cc1OC
8. Cc1ccc(C(=O)NC(=Cc2ccccc2)C(=O)NCCCn2ccnc2)cc1

[0.979, 1.13, 1.31, 1.14, 1.32, 1.22, 1.57, 1.12]

====

system: RAW-Dual (murine macrophage reporter line); assay: IRF reporter (Lucia luciferase) activity fold change vs agonist alone; higher = enhanced IRF activity; settings: modulator concentration 10 µM; agonist: MPLA […]
I would appreciate it if you labelled entries condition met when IRF reporter is 1 or higher, otherwise condition not met.

Previously resolved entries follow.
- Compound: "CC1CC(C)CN(S(=O)(=O)CCCOc2ccc3c(c2)OCO3)C1 (stereo unspecified)"
  Category: "condition met"
- Compound: "CCCc1nc(-c2ccccc2)c(-c2ccc(OC)c(OC)c2)c(=O)[nH]1"
  Category: "condition met"
- Compound: "Nc1c2c(nc3ccccc13)CCCC2"
  Category: "condition met"
- Compound: "COc1ccc(-c2[nH]c(-c3cccc(OC)c3)nc2SCC(=O)NC2CCCC2)cc1"
  Category: "condition met"
- Compound: "CCN(CC)Cc1cc(Nc2ccnc3cc(Cl)ccc23)ccc1O.Cl.Cl"
  Category: "condition met"
- Compound: "O=C(C=Cc1ccc2c(c1)OCO2)NCc1ccccn1"
  Category: "condition met"
- Compound: "Br.CCCCn1c(=N)n(CC(=O)OC)c2ccccc21"
  Category: "condition met"
- Compound: "COc1ccc(C=NNc2nc(Nc3ccc(C)cc3Br)nc(N3CCOCC3)n2)c(OC)c1"
  Category: "condition met"

Hello, I need to know if CC(=O)OCC(=O)NCCCOc1cccc(CN2CCCCC2)c1.Cl has measured IRF reporter not below 1. Thanks!
condition met

Kindly determine if IRF reporter recorded for CCOc1ccc(S(=O)(=O)N2C3CCC2CC(S(=O)(=O)c2ccccc2)C3)cc1 (stereo unspecified) is above or exactly 1.
condition met

In plain terms: is recorded IRF reporter at least 1 for COc1nc(C)cnc1NS(=O)(=O)c1cccnc1-c1ccc(-c2nnco2)cc1 ?
condition met

Answer whether IRF reporter of CCOc1nc2cccc(C(=O)O)c2n1Cc1ccc(-c2ccccc2-c2nnn[nH]2)cc1 is greater than or equal to 1.
condition met

Assess whether reported IRF reporter for NC(CO)(CO)CO sits at 1 or higher.
condition not met

====

test system: RAW-Dual (murine macrophage reporter line); test: IRF reporter (Lucia luciferase) activity fold change vs agonist alone; higher = enhanced IRF activity; details: modulator concentration 10 µM; agonist: LPS 0.1 ug/mL
Reported Endpoint: IRF reporter
Give bare numbers.

Please review the following examples before continuing.
- Molecule: "Cl.O=C1Cc2cc(CCN3CCN(c4nsc5ccccc45)CC3)c(Cl)cc2N1"
  Target Desc: "RAW-Dual (murine macrophage reporter line)"
  IRF reporter: 1.24
- Molecule: "COC(=O)C1=C(C)NC(C)=C(C(=O)OCC(C)C)C1c1ccccc1[N+](=O)[O-] (stereo unspecified)"
  Target Desc: "RAW-Dual (murine macrophage reporter line)"
  IRF reporter: 0.783
- Molecule: "O=C(O)CCCNCP(=O)(O)CCc1ccccc1"
  Target Desc: "RAW-Dual (murine macrophage reporter line)"
  IRF reporter: 0.989

Give IRF reporter for each listed item.
1. Cc1ccc2[nH]c(=O)c(-c3cc(-c4ccccc4)c4ccccc4n3)c(-c3ccccc3)c2c1
2. COc1cc(O)c(C(=O)Nc2nc(C(=O)NCCN(C(C)C)C(C)C)cs2)cc1OC
3. CC(O)(P(=O)(O)O)P(=O)(O)O
4. Cn1nccc1-c1ccc(CNC(=O)c2cc(Br)cs2)cn1

1: 1.17; 2: 0.907; 3: 1.14; 4: 1.35
